These measurements were taken from BigSolDB 2.1.

- Assay Context: in ethanol, 318.15 K
Endpoint Label: solubility (mole fraction)
Answer with a bare number; do not write a unit.

For record CC(C)(C)C(=O)C(Oc1ccc(Cl)cc1)n1ccnc1 (stereo unspecified) the listed solubility (mole fraction) is 0.288

###

- Assay Context: in n-butanol, 313.15 K
Endpoint Label: solubility (mole fraction)
Answer as a number with no unit attached.

# solubility (mole fraction) (compound: CC(C)(C)C(=O)C(Oc1ccc(Cl)cc1)n1ccnc1 (stereo unspecified) ) is 0.245

###

- Assay Context: in n-butanol, 303.15 K
Endpoint Label: solubility (mole fraction)
// print number alone

Entry CC(C)(C)C(=O)C(Oc1ccc(Cl)cc1)n1ccnc1 (stereo unspecified) , solubility (mole fraction) reported as 0.181

###

- Assay Context: in acetonitrile, 318.15 K
Endpoint Label: solubility (mole fraction)

Form field solubility (mole fraction), entry CC(C)(C)C(=O)C(Oc1ccc(Cl)cc1)n1ccnc1 (stereo unspecified) : 0.222

###

- Assay Context: in acetone, 303.15 K
Endpoint Label: solubility (mole fraction)

Looking up CC(C)(C)C(=O)C(Oc1ccc(Cl)cc1)n1ccnc1 (stereo unspecified) , I see its solubility (mole fraction) listed as 0.207

###

- Assay Context: in ethyl acetate, 288.15 K
Endpoint Label: solubility (mole fraction)
Give the figure only, with no unit attached.

The compound CC(C)(C)C(=O)C(Oc1ccc(Cl)cc1)n1ccnc1 (stereo unspecified) showed solubility (mole fraction) equal to 0.0909

###

- Assay Context: in methanol, 318.15 K
Endpoint Label: solubility (mole fraction)
Could you respond with only the numeric value?

According to the records, this compound CC(C)(C)C(=O)C(Oc1ccc(Cl)cc1)n1ccnc1 (stereo unspecified) displays solubility (mole fraction) of 0.318

###

- Assay Context: in methanol, 298.15 K
Endpoint Label: solubility (mole fraction)
Respond using a number only.

For record CC(C)(C)C(=O)C(Oc1ccc(Cl)cc1)n1ccnc1 (stereo unspecified) the listed solubility (mole fraction) is 0.204

###

- Assay Context: in isobutanol, 318.15 K
Endpoint Label: solubility (mole fraction)
Output spec: single numeric token, no unit.

# solubility (mole fraction) of CC(C)(C)C(=O)C(Oc1ccc(Cl)cc1)n1ccnc1 (stereo unspecified) = 0.26

###

- Assay Context: in acetonitrile, 303.15 K
Endpoint Label: solubility (mole fraction)
Enter the number alone.

Lab book: solubility (mole fraction) of CC(C)(C)C(=O)C(Oc1ccc(Cl)cc1)n1ccnc1 (stereo unspecified) noted as 0.129

###

- Assay Context: in acetone, 308.15 K
Endpoint Label: solubility (mole fraction)
// keep it numeric: no unit symbol after the value

# solubility (mole fraction) of CC(C)(C)C(=O)C(Oc1ccc(Cl)cc1)n1ccnc1 (stereo unspecified) = 0.235

###

- Assay Context: in methyl acetate, 308.15 K
Endpoint Label: solubility (mole fraction)
Just the number, please, no unit after it.

The measured solubility (mole fraction) associated with CC(C)(C)C(=O)C(Oc1ccc(Cl)cc1)n1ccnc1 (stereo unspecified) reads 0.179

###

- Assay Context: in n-butyl acetate, 318.15 K
Endpoint Label: solubility (mole fraction)
Give a plain numeric answer without units written out.

Measured solubility (mole fraction) of CC(C)(C)C(=O)C(Oc1ccc(Cl)cc1)n1ccnc1 (stereo unspecified) : 0.227

###

- Assay Context: in isobutanol, 298.15 K
Endpoint Label: solubility (mole fraction)
Hey, just send me the number, nothing else.

The reported value for CC(C)(C)C(=O)C(Oc1ccc(Cl)cc1)n1ccnc1 (stereo unspecified) in terms of solubility (mole fraction) is 0.137

###

- Assay Context: in ethanol, 293.15 K
Endpoint Label: solubility (mole fraction)
Output spec: single numeric token, no unit.

# solubility (mole fraction) of CC(C)(C)C(=O)C(Oc1ccc(Cl)cc1)n1ccnc1 (stereo unspecified) = 0.132

###

- Assay Context: in ethyl acetate, 293.15 K
Endpoint Label: solubility (mole fraction)
Reply: number alone, nothing else.

Lab note: measured solubility (mole fraction) of CC(C)(C)C(=O)C(Oc1ccc(Cl)cc1)n1ccnc1 (stereo unspecified) was 0.105

###

- Assay Context: in methanol, 293.15 K
Endpoint Label: solubility (mole fraction)

Please fill in: solubility (mole fraction) reported for CC(C)(C)C(=O)C(Oc1ccc(Cl)cc1)n1ccnc1 (stereo unspecified) = 0.181

###

- Assay Context: in n-butyl acetate, 288.15 K
Endpoint Label: solubility (mole fraction)
// no unit, no text: just the number

Just so you know, measured solubility (mole fraction) for CC(C)(C)C(=O)C(Oc1ccc(Cl)cc1)n1ccnc1 (stereo unspecified) came out at 0.088

###

- Assay Context: in acetone, 313.15 K
Endpoint Label: solubility (mole fraction)

So, CC(C)(C)C(=O)C(Oc1ccc(Cl)cc1)n1ccnc1 (stereo unspecified) ? Its solubility (mole fraction) was 0.259

###

- Assay Context: in n-butanol, 288.15 K
Endpoint Label: solubility (mole fraction)

In plain terms, CC(C)(C)C(=O)C(Oc1ccc(Cl)cc1)n1ccnc1 (stereo unspecified) has a documented solubility (mole fraction) of 0.111

###

- Assay Context: in methyl acetate, 298.15 K
Endpoint Label: solubility (mole fraction)
Provide a numeric answer; units are not to be included.

For record CC(C)(C)C(=O)C(Oc1ccc(Cl)cc1)n1ccnc1 (stereo unspecified) the listed solubility (mole fraction) is 0.129

###

- Assay Context: in n-butanol, 318.15 K
Endpoint Label: solubility (mole fraction)

The compound listed as CC(C)(C)C(=O)C(Oc1ccc(Cl)cc1)n1ccnc1 (stereo unspecified) has a reported solubility (mole fraction) of 0.283

###

- Assay Context: in ethyl acetate, 313.15 K
Endpoint Label: solubility (mole fraction)
Lab note: jot down the number only; don't add units.

So, CC(C)(C)C(=O)C(Oc1ccc(Cl)cc1)n1ccnc1 (stereo unspecified) ? Its solubility (mole fraction) was 0.202

###

- Assay Context: in ethyl acetate, 298.15 K
Endpoint Label: solubility (mole fraction)
// print number alone

Measured solubility (mole fraction), CC(C)(C)C(=O)C(Oc1ccc(Cl)cc1)n1ccnc1 (stereo unspecified) : 0.126

###

- Assay Context: in methyl acetate, 318.15 K
Endpoint Label: solubility (mole fraction)
Field format: numeric only.

Entry CC(C)(C)C(=O)C(Oc1ccc(Cl)cc1)n1ccnc1 (stereo unspecified) — recorded solubility (mole fraction) = 0.251

###

- Assay Context: in methyl acetate, 293.15 K
Endpoint Label: solubility (mole fraction)
Form: value (number only, do not type unit).

Record CC(C)(C)C(=O)C(Oc1ccc(Cl)cc1)n1ccnc1 (stereo unspecified) . Reported solubility (mole fraction): 0.109

###

- Assay Context: in acetone, 318.15 K
Endpoint Label: solubility (mole fraction)

Per the records, this molecule ( CC(C)(C)C(=O)C(Oc1ccc(Cl)cc1)n1ccnc1 (stereo unspecified) ) has solubility (mole fraction) equal to 0.301

###

- Assay Context: in n-butyl acetate, 298.15 K
Endpoint Label: solubility (mole fraction)

Record CC(C)(C)C(=O)C(Oc1ccc(Cl)cc1)n1ccnc1 (stereo unspecified) . Reported solubility (mole fraction): 0.115

###

- Assay Context: in acetonitrile, 293.15 K
Endpoint Label: solubility (mole fraction)
Respond numerically, and do not add a unit to the figure.

Sample CC(C)(C)C(=O)C(Oc1ccc(Cl)cc1)n1ccnc1 (stereo unspecified) ; solubility (mole fraction) observed: 0.083

###

- Assay Context: in acetonitrile, 298.15 K
Endpoint Label: solubility (mole fraction)
Please give only the number in your answer, with no unit.

So, CC(C)(C)C(=O)C(Oc1ccc(Cl)cc1)n1ccnc1 (stereo unspecified) ? Its solubility (mole fraction) was 0.103

###

- Assay Context: in methyl acetate, 313.15 K
Endpoint Label: solubility (mole fraction)
Answer with the value's number alone.

Please fill in: solubility (mole fraction) reported for CC(C)(C)C(=O)C(Oc1ccc(Cl)cc1)n1ccnc1 (stereo unspecified) = 0.214

###

- Assay Context: in methanol, 303.15 K
Endpoint Label: solubility (mole fraction)
Format: numeric value only, no unit, no commentary.

What the record says about CC(C)(C)C(=O)C(Oc1ccc(Cl)cc1)n1ccnc1 (stereo unspecified) : solubility (mole fraction) is 0.226

###

- Assay Context: in n-butyl acetate, 308.15 K
Endpoint Label: solubility (mole fraction)
API note: the answer field is a bare number with no unit suffix.

Value of solubility (mole fraction) reported for the compound CC(C)(C)C(=O)C(Oc1ccc(Cl)cc1)n1ccnc1 (stereo unspecified) is 0.163

###

- Assay Context: in isobutanol, 288.15 K
Endpoint Label: solubility (mole fraction)
# print the numeric value only

Looking up CC(C)(C)C(=O)C(Oc1ccc(Cl)cc1)n1ccnc1 (stereo unspecified) , I found its solubility (mole fraction) recorded as 0.098

###

- Assay Context: in n-butyl acetate, 313.15 K
Endpoint Label: solubility (mole fraction)
Write no unit; give the number alone.

Recorded solubility (mole fraction) (compound CC(C)(C)C(=O)C(Oc1ccc(Cl)cc1)n1ccnc1 (stereo unspecified) ): 0.192

###

- Assay Context: in ethanol, 308.15 K
Endpoint Label: solubility (mole fraction)
API doc: respond with a numeric literal and nothing else, no unit.

Record CC(C)(C)C(=O)C(Oc1ccc(Cl)cc1)n1ccnc1 (stereo unspecified) , field solubility (mole fraction): 0.211
